- tested_system: ARF6 (Homo sapiens)
- Sequence (P62330 whole entry, species assumed): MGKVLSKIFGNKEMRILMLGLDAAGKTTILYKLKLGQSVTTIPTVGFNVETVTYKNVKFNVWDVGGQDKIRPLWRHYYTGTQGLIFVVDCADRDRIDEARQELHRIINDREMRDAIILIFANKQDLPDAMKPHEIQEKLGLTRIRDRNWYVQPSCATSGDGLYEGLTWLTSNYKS
- measurement_notes: ARF6 inhibition, biochemical fluorometric nucleotide exchange assay
- condition: Table 1; read-out: ARF6 IC50
Counter-ions that a name gives are not always drawn.
IC50 for assorted molecules
A number alone suffices; assume µM.

[
  {
    "molecule": "NCCCC[C@H](N)C(=O)Oc1cc(F)ccc1-c1cc(=O)[nH]c2c(-c3ccc(Cl)cc3)c(Cc3ccccc3)nn12 [NAV-AAE]",
    "measured_parameter": "IC50",
    "value_observed": 3.3
  },
  {
    "molecule": "O=c1cc(-c2ccccc2O)n2nc(C3CC3)c(-c3ccc(Cl)c(Cl)c3)c2[nH]1 [NAV-I]",
    "measured_parameter": "IC50",
    "value_observed": 21
  },
  {
    "molecule": "NCCCC[C@H](N)C(=O)Oc1cc([N+](=O)[O-])ccc1-c1cc(=O)[nH]c2c(-c3ccc(Cl)cc3)c(Cc3ccccc3)nn12 [NAV-B, dihydrochloride]",
    "measured_parameter": "IC50",
    "value_observed": 2.6
  },
  {
    "molecule": "O=c1cc(-c2ccccc2O)n2nc(C(F)(F)F)c(-c3ccc(Cl)c(Cl)c3)c2[nH]1 [NAV-O]",
    "measured_parameter": "IC50",
    "value_observed": 2.8
  }
]

Next:
Please supply the value of reported IC50 for the item O=c1cc(-c2ccccc2O)n2nc(C(F)(F)F)c(-c3ccc(Cl)cc3)c2[nH]1 [NAV-M]
10

* * *

- measurement_notes: Solubility in water and PBS pH 7.4 (Tables 1 and 2)
- Type: physicochemical
- condition: Table 1; water; read-out: Solubility Water
solubility for assorted compounds

Reference set, count: 6
[
  {
    "compound": "N#Cc1ccc(-c2cc(=O)[nH]c3c(-c4ccc(Cl)c(Cl)c4)c(C4CC4)nn23)c(OC(=O)[C@@H](N)CCCCN)c1 [NAV-AB]",
    "solubility": "500 µM"
  },
  {
    "compound": "N#Cc1ccc(-c2cc(=O)[nH]c3c(-c4ccc(Cl)cc4)c(C(F)(F)F)nn23)c(O)c1 [NAV-Q]",
    "solubility": "< 1 µM"
  },
  {
    "compound": "NCCCC[C@H](N)C(=O)Oc1ccccc1-c1cc(=O)[nH]c2c(-c3ccc(Cl)c(Cl)c3)c(C(F)(F)F)nn12 [NAV-AG]",
    "solubility": "> 500 µM"
  },
  {
    "compound": "O=c1cc(-c2ccccc2O)n2nc(C(F)(F)F)c(-c3ccc(Cl)c(Cl)c3)c2[nH]1 [NAV-O]",
    "solubility": "< 1 µM"
  },
  {
    "compound": "N#Cc1ccc(-c2cc(=O)[nH]c3c(-c4ccc(Cl)c(Cl)c4)c(C4CC4)nn23)c(O)c1 [NAV-S]",
    "solubility": "10.2 µM"
  },
  {
    "compound": "N#Cc1ccc(-c2cc(=O)[nH]c3c(-c4ccc(Cl)cc4)c(Cc4ccccc4)nn23)c(OC(=O)[C@@H](N)CCCCN)c1 [NAV-AAD]",
    "solubility": "300 µM"
  }
]

Please supply the value of reported solubility for the item O=c1cc(-c2ccc(F)cc2O)n2nc(C3CC3)c(-c3ccc(Cl)c(Cl)c3)c2[nH]1 [NAV-AF]
1.1 µM

* * *

- measurement_notes: Solubility in water and PBS pH 7.4 (Tables 1 and 2)
- Type: physicochemical
- condition: aqueous buffer; Table 1; PBS pH 7.4; read-out: Solubility PBS pH 7.4
Structures can show the parent of a compound that is named as a salt.
measured_parameter: solubility (µM)
A number alone suffices; assume µM.

[
  {
    "compound": "O=c1cc(-c2ccc(Cl)cc2O)n2nc(C(F)(F)F)c(-c3ccc(Cl)cc3)c2[nH]1 [NAV-K]",
    "solubility / µM": 43
  },
  {
    "compound": "NCCCC[C@H](N)C(=O)Oc1cc(Cl)ccc1-c1cc(=O)[nH]c2c(-c3ccc(Cl)cc3)c(C(F)(F)F)nn12 [NAV-Z]",
    "solubility / µM": 22
  },
  {
    "compound": "NCCCC[C@H](N)C(=O)Oc1cc([N+](=O)[O-])ccc1-c1cc(=O)[nH]c2c(-c3ccc(Cl)cc3)c(Cc3ccccc3)nn12 [NAV-B, dihydrochloride]",
    "solubility / µM": 1.7
  },
  {
    "compound": "O=c1cc(-c2ccccc2O)n2nc(C(F)(F)F)c(-c3ccc(Cl)c(Cl)c3)c2[nH]1 [NAV-O]",
    "solubility / µM": 38
  },
  {
    "compound": "N#Cc1ccc(-c2cc(=O)[nH]c3c(-c4ccc(Cl)c(Cl)c4)c(C(F)(F)F)nn23)c(OC(=O)[C@@H](N)CCCCN)c1 [NAV-AA]",
    "solubility / µM": 19
  }
]

Next:
Please supply the value of reported solubility for the item O=c1cc(-c2ccc(Cl)cc2O)n2nc(C(F)(F)F)c(C3CCCCC3)c2[nH]1 [NAV-F]
21

* * *

solubility for assorted compounds
- measurement_notes: Solubility in water and PBS pH 7.4 (Tables 1 and 2)
- Assay type: physicochemical
- condition: Table 1; water; read-out: Solubility Water
A number alone suffices; assume µM.

Reference set, count: 9
[
  {
    "structure_notation": "O=c1cc(-c2ccccc2O)n2nc(Cc3ccccc3)c(-c3ccc(Cl)cc3)c2[nH]1",
    "value_observed": 9.2
  },
  {
    "structure_notation": "O=c1cc(-c2ccc([N+](=O)[O-])cc2O)n2nc(Cc3ccccc3)c(-c3ccc(Cl)cc3)c2[nH]1",
    "value_observed": 35
  },
  {
    "structure_notation": "O=c1cc(-c2ccc(C(F)(F)F)cc2O)n2nc(C3CC3)c(-c3ccc(Cl)c(Cl)c3)c2[nH]1",
    "value_observed": 30
  },
  {
    "structure_notation": "O=c1cc(-c2ccc(Cl)cc2O)n2nc(CN3CCOCC3)c(-c3ccc(Cl)cc3)c2[nH]1",
    "value_observed": 7
  },
  {
    "structure_notation": "NCCCC[C@H](N)C(=O)Oc1cc(Cl)ccc1-c1cc(=O)[nH]c2c(-c3ccc(Cl)cc3)c(C(F)(F)F)nn12",
    "value_observed": 450
  },
  {
    "structure_notation": "O=c1cc(-c2ccc(F)cc2O)n2nc(C(F)(F)F)c(-c3ccc(Cl)cc3)c2[nH]1",
    "value_observed": 4.5
  },
  {
    "structure_notation": "O=c1cc(-c2ccccc2O)n2nc(C(F)(F)F)c(-c3ccc(Cl)cc3)c2[nH]1",
    "value_observed": 4
  },
  {
    "structure_notation": "N#Cc1ccc(-c2cc(=O)[nH]c3c(-c4ccc(Cl)c(Cl)c4)c(C(F)(F)F)nn23)c(O)c1",
    "value_observed": 5.75
  },
  {
    "structure_notation": "O=c1cc(-c2ccc(C(F)(F)F)cc2O)n2nc(Cc3ccccc3)c(-c3ccc(Cl)cc3)c2[nH]1",
    "value_observed": 20
  }
]

Next:
Please supply the value of reported solubility for the item O=c1cc(-c2ccc(C(F)(F)F)cc2O)n2nc(C(F)(F)F)c(-c3ccc(Cl)c(Cl)c3)c2[nH]1
13

* * *

- measurement_notes: Solubility of ARF6 prodrugs in various vehicles (Table 4)
- Format: physicochemical
- condition: DPBS, pH 7.4, aqueous buffer, kinetic from dmso stock; diluted from 10 mM solution in DMSO; read-out: Solubility (μM) DPBS, pH 7.4
Structures can show the parent of a compound that is named as a salt.
measured_parameter: solubility (µM)
A number alone suffices; assume µM.

Please supply the value of reported solubility for the item NCCCC[C@H](N)C(=O)Oc1cc([N+](=O)[O-])ccc1-c1cc(=O)[nH]c2c(-c3ccc(Cl)cc3)c(Cc3ccccc3)nn12 [NAV-B, dihydrochloride]
1

* * *

- measurement_notes: Solubility in water and PBS pH 7.4 (Tables 1 and 2)
- Assay type: physicochemical
- condition: aqueous buffer; Table 1; PBS pH 7.4; read-out: Solubility PBS pH 7.4
solubility for assorted compounds
A number alone suffices; assume µM.

Reference set, count: 4
[
  {
    "structure_notation": "NCCCC[C@H](N)C(=O)Oc1ccccc1-c1cc(=O)[nH]c2c(-c3ccc(Cl)c(Cl)c3)c(C(F)(F)F)nn12",
    "solubility, µM": 435
  },
  {
    "structure_notation": "O=c1cc(-c2ccc(Cl)cc2O)n2nc(CN3CCOCC3)c(-c3ccc(Cl)cc3)c2[nH]1",
    "solubility, µM": 13
  },
  {
    "structure_notation": "O=c1cc(-c2ccc(C(F)(F)F)cc2O)n2nc(Cc3ccccc3)c(-c3ccc(Cl)cc3)c2[nH]1",
    "solubility, µM": 14
  },
  {
    "structure_notation": "N#Cc1ccc(-c2cc(=O)[nH]c3c(-c4ccc(Cl)cc4)c(Cc4ccccc4)nn23)c(O)c1",
    "solubility, µM": 1.7
  }
]

Next:
Please supply the value of reported solubility for the item O=c1cc(-c2ccc(C(F)(F)F)cc2O)n2nc(C(F)(F)F)c(-c3ccc(Cl)c(Cl)c3)c2[nH]1
11

Value source: patent US11414442B2
